assay-summary: Disseminated EOL-1 AML mouse model
Format: in vivo
condition-description: female, CIEA-NOG, po, 180 mg/kg p.o., plasma, last day of treatment

- molecule: "COc1cc(-c2cn(C)c(=O)c3cnccc23)c(OC)cc1CN(C)C [Compound 2]"
  AUC(0-t) (µM·h): 268
